Ref: paper PMC6522510

Answer each item with its documented ML-2 %inh.
tested on: ML-2; design: species or system AML cell lines (8); Primary HTS, single concentration about 10 uM, Cell Titer Glo viability; log10 luminescence, per cent inhibition relative to cycloheximide control; conditions: 72 h, relative to cycloheximide control, log10 luminescence; inhibitor
Answers are plain numbers, in %.

Known results for molecules:
>>> df
                                   molecule  unit_abbrev  value_measured
0              CCc1nccc2c1nc(-c1nonc1N)n2CC            %           3.812
1  COc1ccc(S(=O)(=O)N2CCN(C(=O)c3ccc(-c4ccccc4)cc3)CC2C(=O)NO)cc1 (stereo not shown)            %           62.36
2  CCOC(=O)C1=C(N)Oc2ccc(Br)cc2[C@H]1[C@H](C#N)C(=O)OCC            %         -0.1514
3  COc1cccc(-n2ncc3c(N/N=C/c4ccncc4)ncnc32)c1            %          0.6096
4  Cn1cc(C2=C(c3cccnc3)C(=O)NC2=O)c2ccccc21            %           3.521
5  CCCN1CCC(Oc2cc(Nc3nc(Nc4cccc(F)c4C(N)=O)c4cc[nH]c4n3)c(OC)cc2Cl)CC1            %           2.245

The record that follows has no ML-2 %inh shown yet.
Task item: What measured ML-2 %inh goes with `CCCN1CCC=C(c2ccc(Nc3nc(Nc4ccccc4C(N)=O)c4cc[nH]c4n3)c(C)c2)C1` ?
Reply: 20.08

----------
system: MV4-11; parameters: species or system AML cell lines (8); Primary HTS, single concentration about 10 uM, Cell Titer Glo viability; log10 luminescence, per cent inhibition relative to cycloheximide control; settings: 72 h, relative to cycloheximide control, log10 luminescence; inhibitor
Counter-ions that a name gives are not always drawn.
Measured Endpoint: MV4-11 %inh
Put your answer as a value accompanied by its unit after it.

Known results for compounds:
In [3]: df
Out[3]:
                                   compound  value_measured
0  COc1ccc2cc(-c3c(-c4ccncc4)nc(-c4ccc([S+](C)[O-])cc4C)n3C)ccc2c1 (centres unmarked)          7.703%
1  CC(=O)Nc1nnc(S(N)(=O)=O)s1 [SJ000285803-7, ACETAZOLAMIDE]          1.807%
2  O=C1C(c2c[nH]c3ccccc23)=C(c2c[nH]c3ccccc23)C(=O)N1O          1.166%
3  COC(=O)Nc1nc2cc(Oc3cccc(NC(=O)Nc4cc(C(F)(F)F)ccc4F)c3)ccc2[nH]1          1.052%
4  Nc1nccc(-c2c(-c3ccc(F)cc3)nn3cc(C(F)(F)F)ccc23)n1         -1.787%

# per-item lookup of MV4-11 %inh; items listed below
1. Cc1cc(-c2ccccn2)cc(C)c1/C=C/c1cncc(-c2nn[nH]n2)c1
2. Cc1ccc(C(=O)Cn2c3c(sc2=N)CCCC3)cc1
3. CNCC(O)c1ccc(OC(=O)C(C)(C)C)c(OC(=O)C(C)(C)C)c1 (centres unmarked) [SJ000287343-2, DIPIVEFRIN HYDROCHLORIDE]

Reply:
-0.7703%
4.352%
8.373%
